measuredOn: mature SARSCoV2 M^pro (Severe acute respiratory syndrome coronavirus 2, UniProt P0DTD1)
resultType: IC50 (µM)
I only need the number, in µM, no unit after it.

Input line: Request the reported IC50 associated with CC(C)(C)NC(=O)N[C@H](C(=O)N1C[C@@H]2CCC[C@@H]2[C@H]1C(=O)N[C@@H](C[C@@H]1CCNC1=O)C(=O)C(N)=O)C(C)(C)C
Output line: 0.147

* * *

Reported CC50 values follow for various compounds
testDescription: in vitro
protocolConditions: human, caco-2 cells

Worked cases, answers included:
CC(C)(C)NC(=O)N[C@H](C(=O)N1C[C@H]2[C@@H]([C@H]1C(=O)NC(CC1CCC1)C(=O)C(N)=O)C2(C)C)C(C)(C)C (stereo partly shown) ... > 100 µM
CC(C)C[C@H](NC(=O)OCc1ccccc1)C(=O)N[C@@H](C[C@@H]1CCNC1=O)C(O)S(=O)(=O)O (stereo partly shown) ... > 100 µM
CC(C)(C)NC(=O)N[C@H](C(=O)N1C[C@@H]2CCC[C@@H]2[C@H]1C(=O)N[C@@H](C[C@@H]1CCNC1=O)C(=O)C(N)=O)C(C)(C)C ... > 100 µM

Input line: Requested read-out: CC50. Entry: CC(C)(C)NC(=O)N[C@H](C(=O)N1C[C@H]2[C@@H]([C@H]1C(=O)N[C@@H](C[C@@H]1CCNC1=O)C(=O)C(N)=O)C2(C)C)C(C)(C)C
Output line: > 100 µM
